% Inhibition values by entry
Tested on: human SMAD7 mRNA
Test method notes: Antisense inhibition of human SMAD7 mRNA expression in Hep3B cells by 3-10-3 cEt gapmers, 10,000 nM, electroporation (Example 2)
Assay type: cell-based
Cond: Hep3B cells, electroporation with 10,000 nM antisense oligonucleotide, approximately 24 hours, primer probe set RTS5062, relative to untreated control cells
Strand notation (5' to 3'): a small letter for the sugar, then the base; units joined by * are phosphorothioate-linked, units joined directly phosphodiester-linked; [ ] holds rarer units or linkages, { } end groups; capitals alone tell only the bases. k = constrained ethyl (cEt); [5mC] = 5-methylcytosine; d = 2'-deoxy (DNA)

Substance | Tested on | Unit info | % Inhibition
799177 (antisense kT*kT*kA*dT*dG*dT*dT*dA*dA*dA*dG*dT*d[5mC]*kT*kA*kA) [compound 799177] | human SMAD7 mRNA | % | 0
798973 (antisense kT*k[5mC]*k[5mC]*dT*dA*dT*d[5mC]*dA*dG*dG*dG*dT*dG*kT*k[5mC]*k[5mC]) [compound 798973] | human SMAD7 mRNA | % | 30
799133 (antisense kG*k[5mC]*kT*dA*dA*dG*d[5mC]*dA*dT*dG*dT*d[5mC]*d[5mC]*k[5mC]*kT*k[5mC]) [compound 799133] | human SMAD7 mRNA | % | 17
799033 (k[5mC]*k[5mC]*k[5mC]*dA*dG*dG*dT*dA*d[5mC]*dT*dG*d[5mC]*d[5mC]*kT*k[5mC]*kT; antisense) [compound 799033] | human SMAD7 mRNA | % | 35
790630 (kG*kG*kA*dA*d[5mC]*dA*dT*dA*dA*dA*d[5mC]*dT*d[5mC]*k[5mC]*kT*kT; antisense) [compound 790630] | human SMAD7 mRNA | % | 0
799076 (antisense kA*kG*k[5mC]*dA*dG*dA*dT*dG*dG*d[5mC]*d[5mC]*dA*dA*kA*kA*kA) [compound 799076] | human SMAD7 mRNA | % | 34
799041 (kG*kG*k[5mC]*dA*dG*d[5mC]*dT*dG*d[5mC]*dT*dG*dG*dG*kA*k[5mC]*k[5mC]; antisense) [compound 799041] | human SMAD7 mRNA | % | 22
799207 (k[5mC]*kT*kT*dT*dA*dT*dA*dT*dT*dT*dA*d[5mC]*dA*kA*kG*kT; antisense) [compound 799207] | human SMAD7 mRNA | % | 0
799060 (antisense kG*k[5mC]*k[5mC]*dA*d[5mC]*dT*dA*dG*d[5mC]*dA*dG*dG*d[5mC]*kT*k[5mC]*kG) [compound 799060] | human SMAD7 mRNA | % | 37
798938 (antisense kA*k[5mC]*k[5mC]*dA*dA*dA*dG*dA*dG*dT*dT*dT*dG*k[5mC]*kA*kT) [compound 798938] | human SMAD7 mRNA | % | 15
790615 (CCAATGAGAATGCTTC; 3-10-3 cEt gapmer, further chemistry not given here) [compound 790615] | human SMAD7 mRNA | % | 38
799139 (antisense k[5mC]*kG*kG*dA*d[5mC]*d[5mC]*dA*dA*dA*dT*d[5mC]*d[5mC]*dT*kT*k[5mC]*kT) [compound 799139] | human SMAD7 mRNA | % | 56
